Every entry's value here was drawn from patent US5102897A.

# Target of assay: Cyclooxygenase (Rattus norvegicus, UniProt Q63921)
# Sequence (Q63921 27-602): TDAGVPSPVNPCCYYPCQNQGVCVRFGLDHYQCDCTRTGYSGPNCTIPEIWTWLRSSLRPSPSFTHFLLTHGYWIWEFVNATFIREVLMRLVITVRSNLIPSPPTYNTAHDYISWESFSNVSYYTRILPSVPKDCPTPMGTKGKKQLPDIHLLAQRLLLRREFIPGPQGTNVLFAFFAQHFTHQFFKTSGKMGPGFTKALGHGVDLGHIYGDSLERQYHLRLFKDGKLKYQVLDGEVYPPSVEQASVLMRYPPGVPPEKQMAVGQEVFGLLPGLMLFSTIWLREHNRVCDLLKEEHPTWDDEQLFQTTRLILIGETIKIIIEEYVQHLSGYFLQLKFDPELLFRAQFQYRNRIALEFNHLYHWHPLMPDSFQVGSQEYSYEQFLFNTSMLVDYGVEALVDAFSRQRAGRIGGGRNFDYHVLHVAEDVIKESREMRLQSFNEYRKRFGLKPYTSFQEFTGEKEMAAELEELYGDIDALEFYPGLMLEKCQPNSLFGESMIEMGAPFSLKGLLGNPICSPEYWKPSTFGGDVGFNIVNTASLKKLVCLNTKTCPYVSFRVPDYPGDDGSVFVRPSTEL
# Assay text: ARBC whole cell cyclooxygenase assay (RBL-1 cells, PGF2α formation, RIA)
# Run parameters: RBL-1 whole cells, calcium ionophore A23187 (5 μM); read-out: ARBC: IC50 for PGF2α inhibition
pIC50: −log10 of the molar value.
Property label: pIC50

>>> reported_result("CC(C)(C)c1cc(C(=O)c2nnc(N)s2)cc(C(C)(C)C)c1O [Example 29]")
5.28

1: CC(C)(C)c1cc(Sc2n[nH]c(=S)s2)cc(C(C)(C)C)c1O [Example 9]
2: CC(C)(C)c1cc(Sc2n[nH]c(=S)o2)cc(C(C)(C)C)c1O [Example 7]
Compare pIC50: is it lower for 1 or for 2 ? I would appreciate it if you answered with the label of your choice.
1

* * *

# Target of assay: 5-Lipoxygenase (Rattus norvegicus)
# Sequence (P12527 whole entry): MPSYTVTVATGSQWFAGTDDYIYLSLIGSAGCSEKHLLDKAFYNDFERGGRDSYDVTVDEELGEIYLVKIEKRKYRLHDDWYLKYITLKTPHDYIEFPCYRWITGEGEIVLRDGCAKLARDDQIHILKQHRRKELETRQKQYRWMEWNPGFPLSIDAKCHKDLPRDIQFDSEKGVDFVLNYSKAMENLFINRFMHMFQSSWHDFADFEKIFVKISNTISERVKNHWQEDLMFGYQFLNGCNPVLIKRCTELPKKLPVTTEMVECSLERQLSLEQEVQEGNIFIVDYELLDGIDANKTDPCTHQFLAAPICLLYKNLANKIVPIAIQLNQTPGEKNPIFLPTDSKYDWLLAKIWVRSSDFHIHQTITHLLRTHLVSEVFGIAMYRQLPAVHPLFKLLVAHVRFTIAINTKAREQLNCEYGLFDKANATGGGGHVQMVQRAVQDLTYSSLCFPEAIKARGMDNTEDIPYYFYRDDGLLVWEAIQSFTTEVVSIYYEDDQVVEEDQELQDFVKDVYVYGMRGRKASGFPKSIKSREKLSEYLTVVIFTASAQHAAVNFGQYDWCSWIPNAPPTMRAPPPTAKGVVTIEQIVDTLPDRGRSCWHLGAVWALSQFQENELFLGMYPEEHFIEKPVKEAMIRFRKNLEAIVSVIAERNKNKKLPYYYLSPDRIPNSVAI
# Assay text: ARBL whole cell 5-lipoxygenase assay (RBL-1 cells, LTB4 formation, RIA)
# Run parameters: RBL-1 whole cells, calcium ionophore A23187 (5 μM); read-out: ARBL: IC50 for LTB4 inhibition
# Method: ARBL/ARBC Whole Cell 5-Lipoxygenase and Cyclooxygenase Assays The rat basophilic leukemia cell line (RBL-1) was obtained from the American Type Culture Collection (Rockville, MD). […] RBL-1 cells are grown in suspension culture in Eagle's minimum essential medium supplemented with 12% fetal bovine serum at 37° C. in an incubator supplied with air-5% carbon dioxide. […] Aliquots (100 μL) are analyzed for LTB4 and PGF2.sbsb.α using radioimmunoassay kits as provided by the supplier. […]
pIC50: −log10 of the molar value.
Property label: pIC50

Below are worked cases with known answers.
>>> reported_result("CC(C)(C)c1cc(SCCc2n[nH]c(=O)o2)cc(C(C)(C)C)c1O [Example 13]")
6.22
>>> reported_result("CC(C)(C)c1cc(Sc2n[nH]c(=S)s2)cc(C(C)(C)C)c1O [Example 9]")
5.96
>>> reported_result("CC(C)(C)c1cc(SCCc2n[nH]c(=S)o2)cc(C(C)(C)C)c1O [Example 14]")
5.38

A: CC(C)(C)c1cc(C(=O)c2nnc(N)s2)cc(C(C)(C)C)c1O [Example 29]
B: CC(C)(C)c1cc(Sc2n[nH]c(=S)o2)cc(C(C)(C)C)c1O [Example 7]
Among A and B , which shows a numerically higher pIC50 result? API: response body contains the label of the selected item.
A
(A: 5.96, B: 5.70)

* * *

# Target of assay: Cyclooxygenase (Rattus norvegicus, UniProt Q63921)
# Construct: host or cells: RBL-1 (rat basophilic leukemia)
# Assay text: ARBC whole cell cyclooxygenase assay (RBL-1 cells, PGF2α formation, RIA)
# Format: cell-based
# Run parameters: @ 10 μM; RBL-1 whole cells, A23187; read-out: ARBC: Percent inhibition of PGF2α @ 10 μM
# Description: ARBL/ARBC Whole Cell 5-Lipoxygenase and Cyclooxygenase Assays The rat basophilic leukemia cell line (RBL-1) was obtained from the American Type Culture Collection (Rockville, MD). […] RBL-1 cells are grown in suspension culture in Eagle's minimum essential medium supplemented with 12% fetal bovine serum at 37° C. in an incubator supplied with air-5% carbon dioxide. […] Aliquots (100 μL) are analyzed for LTB4 and PGF2.sbsb.α using radioimmunoassay kits as provided by the supplier. […]
Property label: inhibition at 10 µM (%)

>>> reported_result("CC(C)(C)c1cc(SCCc2nnco2)cc(C(C)(C)C)c1O")
55
>>> reported_result("CC(C)(C)c1cc(SCCc2n[nH]c(=O)o2)cc(C(C)(C)C)c1O")
75
>>> reported_result("CC(C)(C)c1cc(C(=O)c2n[nH]c(=S)s2)cc(C(C)(C)C)c1O")
92
>>> reported_result("CC(C)(C)c1cc(Sc2nncs2)cc(C(C)(C)C)c1O")
54

I: CC(C)(C)c1cc(CCc2nnco2)cc(C(C)(C)C)c1O
II: CSc1nnc(C(=O)c2cc(C(C)(C)C)c(O)c(C(C)(C)C)c2)s1
Kindly compare I with II and tell me which has the lower inhibition at 10 µM figure. # respond with the chosen item's label
I
(I: 52%, II: 100%)

* * *

# Target of assay: 5-Lipoxygenase (Rattus norvegicus)
# Construct: host or cells: RBL-1 (rat basophilic leukemia)
# Assay text: ARBL whole cell 5-lipoxygenase assay (RBL-1 cells, LTB4 formation, RIA)
# Format: cell-based
# Run parameters: @ 10 μM; RBL-1 whole cells, A23187; read-out: ARBL: Percent inhibition of LTB4 @ μM noted
Property label: inhibition at 10 µM (%)

>>> reported_result("CC(C)(C)c1cc(CCc2nnc(N)o2)cc(C(C)(C)C)c1O")
40
>>> reported_result("CC(C)(C)c1cc(Sc2nncs2)cc(C(C)(C)C)c1O")
59
>>> reported_result("CC(C)(C)c1cc(CCc2nnco2)cc(C(C)(C)C)c1O")
100
>>> reported_result("CC(C)(C)c1cc(C(=O)c2n[nH]c(=S)s2)cc(C(C)(C)C)c1O")
100
>>> reported_result("CC(C)(C)c1cc(SCCc2nnc(N)o2)cc(C(C)(C)C)c1O")
100

A: CC(C)(C)c1cc(SCCc2nnco2)cc(C(C)(C)C)c1O
B: CC(C)(C)c1cc(CCc2n[nH]c(=O)o2)cc(C(C)(C)C)c1O
Between A and B , which one shows the smaller inhibition at 10 µM number? Write down the label attached to your selection.
B
(B: 60%, A: 100%)
